Below, each entry is listed alongside its reported selectivity ratio.
Assay: Selectivity index, ratio of IC50 for rat L6 cells to IC50 for bloodstream form of Trypanosoma brucei rhodesiense STIB 900
Type: toxicity, cell-based
Conditions: read-out: Ratio IC50
property-measured: selectivity ratio

{"columns": ["compound", "measured"],
 "data": [
  ["CN1CCN(C23CC(NCCC(=O)N4CCCC4)C(C(c4ccccc4)C2)C(c2ccccc2)C3)CC1 (racemic)", 42.9],
  ["CN1CCN(C23CC(NC(=O)CCN4CCCC4)C(C(c4ccccc4)C2)C(c2ccccc2)C3)CC1 (racemic)", 13.6],
  ["CCN(CC)CCC(=O)NC1CC2(N3CCN(C)CC3)CC(c3ccccc3)C1C(c1ccccc1)C2 (racemic)", 15.7],
  ["CCN(CC)CC(=O)NC1CC2(N3CCN(C)CC3)CC(c3ccccc3)C1C(c1ccccc1)C2 (racemic)", 39.4]
]}

---

Assay: Selectivity index, ratio of IC50 for rat L6 cells to IC50 for chloroquine- and pyrimethamine-resistant Plasmodium falciparum K1
Format: toxicity, cell-based
Details: L6 cells versus Plasmodium falciparum K1, read-out: Ratio IC50
Below, each entry is listed alongside its reported selectivity ratio.

{"columns": ["compound", "selectivity ratio"],
 "data": [
  ["CCN(CC)C(=O)CNC1CC2(N3CCN(C)CC3)CC(c3ccccc3)C1C(c1ccccc1)C2 (racemic)", 32.7],
  ["CN1CCN(C23CC(NCCC(=O)N4CCCC4)C(C(c4ccccc4)C2)C(c2ccccc2)C3)CC1 (racemic)", 36.4],
  ["CN1CCN(C23CCN(CCCN4CCCC4)C(C(c4ccccc4)C2)C(c2ccccc2)C3)CC1 (racemic)", 726],
  ["CN1CCN(C23CC(NC(=O)CCN4CCCC4)C(C(c4ccccc4)C2)C(c2ccccc2)C3)CC1 (racemic)", 76.7],
  ["CN1CCN(C23CCN(CCCN4CCCCC4)C(C(c4ccccc4)C2)C(c2ccccc2)C3)CC1 (racemic)", 577],
  ["CCN(CC)CCCN1CCC2(N3CCN(C)CC3)CC(c3ccccc3)C1C(c1ccccc1)C2 (racemic)", 1140],
  ["CCN(CC)CC(=O)NC1CC2(N3CCN(C)CC3)CC(c3ccccc3)C1C(c1ccccc1)C2 (racemic)", 71.3],
  ["C[C@@H]1CC[C@H]2[C@@H](C)C(=O)O[C@@H]3O[C@@]4(C)CC[C@@H]1[C@]32OO4 [ARTEMISININ]", 70.4],
  ["CN1CCN(C23CC(NC(=O)CN4CCCC4)C(C(c4ccccc4)C2)C(c2ccccc2)C3)CC1 (racemic)", 99.3],
  ["CN1CCN(C23CC(NCCCN4CCCC4)C(C(c4ccccc4)C2)C(c2ccccc2)C3)CC1 (racemic)", 33.8],
  ["CN1CCN(C23CC(NC(=O)CCN4CCCCC4)C(C(c4ccccc4)C2)C(c2ccccc2)C3)CC1 (racemic)", 66.7],
  ["CN1CCN(C23CC(NC(=O)CN4CCCCC4)C(C(c4ccccc4)C2)C(c2ccccc2)C3)CC1 (racemic)", 63.2],
  ["CCN(CC)CCC(=O)NC1CC2(N3CCN(C)CC3)CC(c3ccccc3)C1C(c1ccccc1)C2 (racemic)", 53.6]
]}

---

Assay: Selectivity index, ratio of IC50 for rat L6 cells to IC50 for bloodstream form of Trypanosoma brucei rhodesiense STIB 900
Type: toxicity, cell-based
Conditions: read-out: Ratio IC50

{"columns": ["molecule", "selectivity ratio"],
 "data": [
  ["CCN(CC)C(=O)CNC1CC2(N3CCN(C)CC3)CC(c3ccccc3)C1C(c1ccccc1)C2 (racemic)", 75.9],
  ["CN1CCN(C23CC(NC(=O)CCN4CCCCC4)C(C(c4ccccc4)C2)C(c2ccccc2)C3)CC1 (racemic)", 12.1],
  ["CN1CCN(C23CC(NCCCN4CCCC4)C(C(c4ccccc4)C2)C(c2ccccc2)C3)CC1 (racemic)", 14.1],
  ["CN1CCN(C23CCN(CCCN4CCCCC4)C(C(c4ccccc4)C2)C(c2ccccc2)C3)CC1 (racemic)", 11.4]
]}
